Sourced from the supplement of paper PMC6555819

Tested on: VDR:RXRa (NR concentration 270 nM, RXRa partner concentration 90 nM)
assay.summary: PBM binding z-score (relative to random genomic background probes); higher = stronger binding; sequences stand for … in GC…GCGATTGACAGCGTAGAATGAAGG
Reported PBM binding z-score is given for each of the following sequences.
Just the number.

// known answers, use as guide
TCATATAAGTAATACAGGTGAAAGTCGGCATCTA | 1.16
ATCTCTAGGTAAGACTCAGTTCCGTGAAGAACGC | 0.121

Q: State the recorded PBM binding z-score for this entry: `CCTTAAGGGTCACTCCAGGTTATAGCATCGGAGT`
Result: 5.13

Q: Would you kindly repeat that for `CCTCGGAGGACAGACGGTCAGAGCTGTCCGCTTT` ?
Result: -0.53

Q: What about this sequence? `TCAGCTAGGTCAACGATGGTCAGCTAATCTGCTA`
Result: 1.53

Q: Would you kindly repeat that for `CAAACTAGGTCACAGAGGTCCAAGTCCGTGCGTA` ?
Result: 5

Q: Please give the result for `CCTCGGAGGACAACAGGAGGGCAGAGCTGCCAGA` too.
Result: -0.641

Q: Same question for `ACTAGCAGGCCAAGATTGGGTCACTCAAACAAAG` please.
Result: 0.16

Q: Please do the same for `CCTCGGAGGACAGAACGTCAGAGCTGTCCGCTTT` as well.
Result: -0.754

Q: Would you kindly repeat that for `GCTTACGGGTCAAAGGTTATTGCATGAATAGAAT` ?
Result: 5.54

Q: // next record `CCTCCAAGGTCAATGCTAGGTCAGTGAAAGCATT`
Result: 4.74

Q: Next: `ATCTCTAGGTAAAAGTTTAGTGAATCCCGAGGAT`
Result: 0.124

---

Test system: PPARa:RXRa (NR concentration 270 nM, RXRa partner concentration 90 nM)
assay.summary: PBM binding z-score (relative to random genomic background probes); higher = stronger binding; sequences stand for … in GC…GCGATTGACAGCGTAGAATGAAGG
// label = Condition met if PBM binding z-score is not less than 5, otherwise Condition not met

Example results:
ATATGGAGGTTATCGGGTCATTCAGTTTGCGCAT | Condition not met
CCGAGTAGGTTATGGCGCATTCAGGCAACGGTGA | Condition not met
CCTTACGGGTCACTGACAGGGTATAGCATTTGGA | Condition not met
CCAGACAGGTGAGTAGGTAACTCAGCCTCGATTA | Condition not met
CGGACTAGGTCATCCAGGACAGTGAATACATTGA | Condition not met
TCATATAGGTAAAGGTGAAAGCCGAACGATATGA | Condition not met
CAAACTAGGTCATAGAGGTCAAAGTCCGTGCGTA | Condition met
CCTGCTAAGTCAATGGTCAGCTAAAGCAGCTCGC | Condition not met

Q: Form field: PBM binding z-score at least 5? Entry: `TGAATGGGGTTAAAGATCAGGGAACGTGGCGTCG`
Result: Condition met

Q: Queued: `CCTACTGGGCCACGAAAGGTCATTGCTTCAGTGA`
Result: Condition not met

Q: What do we get for `TAGCGTAGGTCAGATCGGGCCAGTATACGCTATA` ?
Result: Condition not met

Q: How about `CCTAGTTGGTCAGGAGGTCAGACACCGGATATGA` ?
Result: Condition not met

---

Recorded PBM binding z-score by entry
System: RXRa homodimer (NR concentration 180 nM)
assay.summary: PBM binding z-score (relative to random genomic background probes); higher = stronger binding; sequences stand for … in GC…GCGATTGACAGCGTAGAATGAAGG
Format: numeric value only, no unit, no commentary.

Known results for sequences:
CCGACTGGGGCAAAGTTACCATAACGCACAGCCA | 0.344
GCTAGTTGGTCAGTAAAAGGTCACACGCCGGTCG | 5.46
ACTATTAGTTGAGACGAGGGCAACCTATAGGTTG | 0.544
TCTAGTTGGTCGAAGGTCACACACTCGAAATGCG | 4.15

Q: Record lookup: for RXRa homodimer (NR concentration 180 nM), what PBM binding z-score belongs to `CCTTACGGGTCACTCCAGTTTATAGCATCGGAGT` ?
Result: 3.83

Q: Now give it for `TCGAGTAGGGTACCAATGGGGCATTCAGCTTTCT` too.
Result: 0.0647

Q: What do you get for `GCGACGGGGGCAAAGCAGGTTACCATAAGGTTGG` ?
Result: 2.73

Q: Also `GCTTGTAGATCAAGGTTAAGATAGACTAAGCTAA` ?
Result: 1.04

Q: Param item: `AGAAGGAGGTTATACGTAGATCAGGGAAGAAAGT`
Result: 1.59

Q: Another sequence to check: `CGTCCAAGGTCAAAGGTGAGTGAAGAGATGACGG`
Result: 8.39

Q: Same read-out for `TCTCGGAGGACACGAAGGTCAGAGCATTCCAGAG` ?
Result: 1.97

Q: How about `CCTACAGGGTCAGCTAGGCCAGAGTAGGGACGGC` ?
Result: 4.59

Q: Query `CCTACTTGGCCACGAAAGGTCATTGATTCAGTGA` next
Result: 5.16

Q: // repeat for `ATATGTAGGTTACATCCGGTTCATTCAGGCTATG` and report
Result: 1.54

Q: What about `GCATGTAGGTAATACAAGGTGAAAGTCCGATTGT` ?
Result: 0.495

Q: Also check `ATCGAAAGGTTGACGAGGTGAGTATACACCGTTT`
Result: 1.65

Q: Next sequence up: `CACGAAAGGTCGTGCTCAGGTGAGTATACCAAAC`
Result: 5.36

Q: Another: `CCTAGTTGGTCAGAAGGTCACACACCGGATATGA`
Result: 4.4

Q: Query `ATCTCTAGGTAACACGTTCAGTGAAAGAGAGGAC` next
Result: 0.391

---

System: PPARa:RXRa (NR concentration 270 nM, RXRa partner concentration 90 nM)
assay.summary: PBM binding z-score (relative to random genomic background probes); higher = stronger binding; sequences stand for … in GC…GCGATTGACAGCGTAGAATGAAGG
Lab note: compare PBM binding z-score against 3. Equal or greater, write yes (1). Smaller, write no (0).

Example entries and their recorded answers appear below.
GCTAGTTGGTCAGTAAAAGGTCACACAGCGGTCG | yes (1)
GCTATTAGTAGAAAGGGCAACCGAATGATTCTCG | no (0)
CAAACTAGGTCGCCGGAAGGTCAAAGTCCGCATG | yes (1)

Q: Does the reported PBM binding z-score for `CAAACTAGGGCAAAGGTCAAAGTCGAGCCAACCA` fall at or above the 3 mark?
Result: yes (1)

Q: How about this sequence: `ATCGACAGGTCGAAGGTGAGTATACCCACCCGAA`
Result: no (0)

Q: Do the same for `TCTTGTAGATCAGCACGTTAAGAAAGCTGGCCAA` please
Result: no (0)

Q: Entry to check: `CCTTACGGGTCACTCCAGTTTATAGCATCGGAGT`
Result: yes (1)

Q: Another: `CAGCCTAGGTCAGGGCCAGTTTAGGAGGAACGTT`
Result: no (0)

Q: Repeat for the following sequence: `TGAATGAGGTTATAAGATCAGGGACCGTTGCAAA`
Result: no (0)

Q: Same lookup for `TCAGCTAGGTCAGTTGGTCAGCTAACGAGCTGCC` , please.
Result: no (0)

Q: Ok, now `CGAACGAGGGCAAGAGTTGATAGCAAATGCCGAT`
Result: no (0)

Q: Ok, now `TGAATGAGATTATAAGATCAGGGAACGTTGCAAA`
Result: no (0)

---

System: LXRb homodimer (NR concentration 270 nM)
assay.summary: PBM binding z-score (relative to random genomic background probes); higher = stronger binding; sequences stand for … in GC…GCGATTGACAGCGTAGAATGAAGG
// map PBM binding z-score onto a label; ranges low group (below -0.9), middle group (-0.9 to below 0.05), high group (0.05 or more)

Q: Classify this sequence: `TCTGCTAGGTCAACGATGGGCAGCTAATCTGCTA`
Result: middle group

Q: Would you kindly repeat that for `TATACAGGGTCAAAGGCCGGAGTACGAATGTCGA` ?
Result: high group

---

Tested on: PPARg DBDmut:RXRa IVT, anti-PPARg (DBD mutation: PPARg1 K132A/R137A, NR concentration 270 nM, RXRa partner concentration 90 nM)
assay.summary: PBM binding z-score (relative to random genomic background probes); higher = stronger binding; sequences stand for … in GC…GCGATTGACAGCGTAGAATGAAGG
Reported values of PBM binding z-score for individual entries
// return a plain number; no unit text

Example cases with answers are listed next.
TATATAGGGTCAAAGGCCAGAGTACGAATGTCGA | 1.12
AATACAGGGTTACTAGGCCAGAGTAGGTACGAAT | 1.84
AATACAGGGTCATCGTATGCCAGAGTACGCACAG | 4.37
GCTCGGAGGTCAAGGTCAGAGCTTTGTCCGTAGA | -0.342
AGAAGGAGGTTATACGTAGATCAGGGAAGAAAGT | 2.08
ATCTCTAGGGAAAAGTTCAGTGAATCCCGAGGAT | 0.313
GCTATTAGTTGAAAGGGCAACCAAATGATTCTCG | 0.444
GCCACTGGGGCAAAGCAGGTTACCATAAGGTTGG | 0.444

Q: # lookup: PBM binding z-score of `GCTATTACTTGAAAGGGCAACCGAATGATTCTCG`
Result: -0.509

Q: Follow-up item: `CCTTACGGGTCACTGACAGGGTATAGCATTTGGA`
Result: 0.282

Q: Follow-up entry: `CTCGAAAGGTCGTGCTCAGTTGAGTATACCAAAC`
Result: 0.908

Q: Entry to check: `CGTCAAAGCTCAAGGTAACGTAACAGAAAGCAGC`
Result: -1.47
